Cited source: paper PMC3218832

- system: RELA (p65) subunit of heterodimer;p52 subunit (Homo sapiens;Homo sapiens, UniProt Q04206;Q00653 1-307;4-332)
- Sequence (Q04206 1-307, chain 1 of 2): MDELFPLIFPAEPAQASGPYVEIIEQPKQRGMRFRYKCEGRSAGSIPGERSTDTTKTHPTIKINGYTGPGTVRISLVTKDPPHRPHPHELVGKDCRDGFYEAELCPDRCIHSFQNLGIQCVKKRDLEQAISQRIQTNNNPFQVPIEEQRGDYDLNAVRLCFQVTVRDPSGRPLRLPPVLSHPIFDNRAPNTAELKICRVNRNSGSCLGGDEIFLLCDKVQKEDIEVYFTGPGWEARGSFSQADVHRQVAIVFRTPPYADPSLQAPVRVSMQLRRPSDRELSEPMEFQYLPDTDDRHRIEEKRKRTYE
- Sequence (Q00653 4-332, chain 2 of 2): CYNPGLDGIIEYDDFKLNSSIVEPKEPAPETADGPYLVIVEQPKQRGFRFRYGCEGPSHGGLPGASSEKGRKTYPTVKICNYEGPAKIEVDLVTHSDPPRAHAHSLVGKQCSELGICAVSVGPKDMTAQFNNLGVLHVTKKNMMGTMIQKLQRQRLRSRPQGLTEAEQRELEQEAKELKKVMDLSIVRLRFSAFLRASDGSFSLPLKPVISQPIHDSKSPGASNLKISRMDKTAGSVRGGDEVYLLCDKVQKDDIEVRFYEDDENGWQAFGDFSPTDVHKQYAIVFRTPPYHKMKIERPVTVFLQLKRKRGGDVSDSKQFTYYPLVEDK
- methodDescription: protein binding microarray; high values mean tight binding
- runConditions: dsDNA, one strand shown
Listed here: items and their measured binding signal.
# output: number + unit

Known results for sequences:
CGGATCTTCCT : -0.836 z-score
AAGGGCCCCCT : 0.569 z-score
AAAGGAGTCCC : 0.431 z-score
CGAGTCCCCCT : 1.39 z-score
GGAAGCACCCT : 0.261 z-score

For record "CAATACGCCCC" the listed binding signal is 0.0537 z-score

For record "AAGGAGCTCCC" the listed binding signal is -0.893 z-score

For record "GGATAGACCCC" the listed binding signal is -0.128 z-score

For record "GAGTTTCTCCT" the listed binding signal is -0.78 z-score

For record "AAAAGCACCCC" the listed binding signal is 1.12 z-score
